Provide the reported boiling point of each item.
Give bare numbers, in °C.

Look over these answered cases.
>>> numeric_value("CCNC(=O)NCC")
263
>>> numeric_value("c1cn[nH]c1")
187
>>> numeric_value("C=CCCCCCCCCCC")
214

Each molecule below has a reported value. Please supply its boiling point.
1. C/C=C/CCCCCCCC
2. CC(C)(C)I
3. O[C@@H]1C[C@H]2CC[C@@H]1C2
4. CCc1cccc(C)c1C
5. NC(=O)c1cccc([N+](=O)[O-])c1
6. CC1COC(=O)O1 (stereo not drawn)
7. CN(C)C=Nc1ccccc1

[194, 100, 176, 194, 312, 242, 127]

---

Output: class label from melting point. Mapping: class 1: < 80 °C; class 2: ≥ 80 °C and < 100 °C; class 3: ≥ 100 °C

>>> class("c1ccc(C(c2ccccc2)c2ccccc2)cc1")
"class 2"
>>> class("CC(CCc1ccccc1)NCC(O)c1ccc(O)c(C(N)=O)c1 (stereo not drawn)")
"class 3"

Class label required: `O=Cc1ccccc1C=O`
class 1

Class label required: `CCCN(CCC)S(=O)(=O)c1ccc(C(=O)O)cc1`
class 3

Class label required: `NC(=O)c1ccccc1F`
class 3

---

Provide the reported log10 vapour pressure (mmHg) of each item.
Numbers only.

Each molecule below has a reported value. Please supply its log10 vapour pressure (mmHg).
1. c1cc2ccc3cccc4ccc(c1)c2c34
2. C=CCCCC
3. Oc1ccc2ccc3cccc4ccc1c2c34
4. ON=C1CCCCC1
5. FC(F)C(F)(F)OCC(Cn1cncn1)c1ccc(Cl)cc1Cl (stereo not given)
6. FCC(F)(F)F
7. CCN(CC)c1c([N+](=O)[O-])cc(C(F)(F)F)c(N)c1[N+](=O)[O-]
8. Nc1c([N+](=O)[O-])ccc(Oc2ccccc2)c1Cl

1. -5.35
2. 2.26
3. -8.32
4. -1.55
5. -5.87
6. 3.7
7. -5.44
8. -6.92

---

Lab note: cut-off is 2. Strictly less in log10 biodegradation half-life (days) is satisfied. Exactly 2 or more is not satisfied.

Consider the following illustrative entries.
>>> class("CCCc1ccccc1")
"satisfied"
>>> class("CCc1cc(C)ccc1C")
"satisfied"
>>> class("CCC(C)(C)C(C)C")
"satisfied"

Query compound follows.
Just wondering, is log10 biodegradation half-life (days) of `c1ccc2c3c(ccc2c1)-c1cccc2cccc-3c12` below 2?
not satisfied

---

Provide the reported log10 Henry constant (atm·m³/mol) of each item.

Each compound below has a reported value. Please supply its log10 Henry constant (atm·m³/mol).
1. O=[N+]([O-])c1cccc(O)c1
2. Cc1ccc(C)c(C)c1
3. COC(C)(C)C
4. Clc1cc(Cl)c(-c2ccccc2)cc1Cl

[-8.7, -2.21, -3.23, -3.7]

Each compound below has a reported value. Please supply its log10 Henry constant (atm·m³/mol).
1. O=C1CCCC1
2. O=CC(Cl)(Cl)Cl
3. CC(=O)c1ccncc1

1: -5; 2: -8.54; 3: -7.2

Each compound below has a reported value. Please supply its log10 Henry constant (atm·m³/mol).
1. CCCS
2. c1ccc2c(c1)Cc1c-2ccc2ccccc12
3. Clc1ccc(C(c2ccc(Cl)cc2)C(Cl)(Cl)Cl)cc1
4. Cc1cccc2c1ccc1ccccc12
5. CCOP(=O)(SC(C)CC)N1CCSC1=O (configuration not stated)
6. CCS
7. CCOO
8. CCC(C)(C)O

1. -2.39
2. -4.58
3. -5.08
4. -4.31
5. -9.76
6. -2.34
7. -5.53
8. -4.86

Each compound below has a reported value. Please supply its log10 Henry constant (atm·m³/mol).
1. O=[N+]([O-])c1ccc(O)cc1
2. O=CC=O

-9.38
-8.48

---

Lab note: cut-off is 200 °C. Strictly less in boiling point is MET. Exactly 200 °C or more is NOT MET.

Consider the following illustrative entries.
>>> class("CCC(C)OC(=O)CCC(=O)OC(C)CC (stereo not drawn)")
"NOT MET"
>>> class("CC1=CCC(C(C)C)C=C1 (stereo not drawn)")
"MET"
>>> class("CCCC(C)C=O (stereo not drawn)")
"MET"
>>> class("C=CCN=C=S")
"MET"
>>> class("ClC(Cl)I")
"MET"

Query compound follows.
Just wondering, is boiling point of `CC(C)(C)CBr` below 200 °C?
MET

---

measured-quantity: melting point (°C)
Give bare numbers, in °C.

Look over these answered cases.
>>> numeric_value("Cc1cccc(C)c1NC(=O)CN(CC(=O)O)CC(=O)O")
202
>>> numeric_value("C1CCCCCCCCC1")
10
>>> numeric_value("CNC(=O)Oc1cccc2c1OC(C)(C)C2")
151

Each compound below has a reported value. Please supply its melting point.
1. C=C[C@H]1CNCC[C@H]1CCC(=O)c1ccnc2ccc(OC)cc12
2. Oc1ccc2[nH]ccc2c1
3. CCCCCCCCCCCCOS(=O)(=O)[O-].[Na+]

[60, 108, 206]

---

Output: class label from log10 vapour pressure (mmHg). Mapping: lo (below -5), med (-5 to below 0.2), hi (0.2 or more)

Consider the following illustrative entries.
>>> class("COc1cc(Cl)c(OC)cc1Cl")
"med"
>>> class("CCC(C)(C)C(C)C")
"hi"
>>> class("CNNC")
"hi"
>>> class("CC(C)CC1CCCCC1")
"hi"
>>> class("CCCCCC(C)OC(=O)COc1ccc(Cl)c2cccnc12 (centres undefined)")
"lo"
>>> class("CNC(=O)Oc1cc(C(C)(C)C)cc(C(C)(C)C)c1")
"lo"
>>> class("CC(N)=O")
"med"
>>> class("CC(O)CO (centres undefined)")
"med"

Class label required: `ClCBr`
hi

Class label required: `Clc1c(Cl)c(Cl)c2c(c1Cl)Oc1c(Cl)c(Cl)c(Cl)c(Cl)c1O2`
lo

Class label required: `CCN(CC)C(=O)/C(Cl)=C(/C)OP(=O)(OC)OC`
med

Class label required: `Cc1ccc(C(=O)O)cc1`
med

Class label required: `Cc1cccc2c1ccc1ccccc12`
med

Class label required: `CCCCOCCOC(=O)COc1ccc(Cl)cc1Cl`
lo

Class label required: `O=C(C(=O)c1ccccc1)c1ccccc1`
med

Class label required: `Clc1ccc(Cl)cc1`
hi

---

Lab note: cut-off is 100 °C. Strictly less in melting point is Y. Exactly 100 °C or more is N.

Consider the following illustrative entries.
>>> class("Cc1ccccc1-c1ccccc1C")
"Y"
>>> class("Clc1cc2c(Cl)cccc2c(Cl)c1Cl")
"N"

Just wondering, is melting point of `C=C1C(=O)O[C@@H]2C=C(CO)CCC=C(C)C[C@H](OC(=O)C(=C)[C@@H](O)CO)[C@@H]12` below 100 °C?
N

Just wondering, is melting point of `Oc1c(I)cc(I)c2cccnc12` below 100 °C?
N

---

measured-quantity: log10 vapour pressure (mmHg)

Look over these answered cases.
>>> result("CCC(C)Nc1c([N+](=O)[O-])cc(C(C)(C)C)cc1[N+](=O)[O-] (centres undefined)")
-4.9
>>> result("CC(CC=O)CC(C)(C)C (centres undefined)")
-1.1
>>> result("CCC(O)CO (centres undefined)")
-1.3
>>> result("SCc1ccccc1")
-0.384

Each compound below has a reported value. Please supply its log10 vapour pressure (mmHg).
1. C=C(CC)CC
2. CN(C(=O)COc1nc2ccccc2s1)c1ccccc1
3. c1ccc(CNc2[nH]cnc3ncnc2-3)cc1
4. CC12CCC(C1)C(C)(C)C2=O (centres undefined)
5. C[Si](C)(C)Cl

[2.24, -8.32, -10.7, -0.0876, 2.37]

---

Provide the reported melting point of each item.

>>> result("CCCCc1nc(Cl)c(CO)n1Cc1ccc(-c2ccccc2-c2nnn[nH]2)cc1")
"184 °C"
>>> result("CC(C)S(=O)(=O)O")
"-37 °C"
>>> result("CCCCCCCCC#CCCCCCCCC(=O)O")
"48 °C"
>>> result("O=C(O)c1nn(Cc2ccc(Cl)cc2Cl)c2ccccc12")
"207 °C"
>>> result("CCOC=C(C#N)C#N")
"66 °C"

Each molecule below has a reported value. Please supply its melting point.
1. Cc1nonc1C
2. CNC1(c2ccccc2Cl)CCCCC1=O.Cl (centres undefined)
3. CS(=O)(=O)c1ccc(C(=O)C2C(=O)CCCC2=O)c(Cl)c1
4. c1ccc2c(c1)ccc1ccc3ccccc3c12
5. Cc1cc(C)cc(-c2ccccc2)c1
6. CCN(CC)C(=O)[C@@H]1C=C2c3cccc4[nH]c(Br)c(c34)C[C@H]2N(C)C1

1. -7 °C
2. 262 °C
3. 139 °C
4. 68 °C
5. 22.5 °C
6. 124 °C

Each molecule below has a reported value. Please supply its melting point.
1. CC(=O)OCCc1ccccc1
2. CC1CCC(C)(C(=O)O)C1(C)C (centres undefined)
3. Cc1ccc(OCC(=O)O)cc1

1. -31.1 °C
2. 106 °C
3. 141 °C
